meta.source: patent US20100173943A1

Test system: cotton aphid (Aphis gossypii)
Assay: Aphis gossypii test (APHIGO spray treatment)
Assay type: in vivo
Settings: 0.8 ppm a.i. + ammonium sulphate 1000 ppm; cotton leaves sprayed; 6 days
Method: Aphis gossypii Test (APHIGO Spray Treatment) Solvent: 7 parts by weight of dimethylformamide Emulsifier: 2 parts by weight of alkylaryl polyglycol ether To prepare a ready-to-use active ingredient formulation, 1 part by weight of active ingredient is mixed with the specified amounts of solvent and emulsifier and the concentrate is diluted with emulsifier-containing water to the desired concentration. […] After the desired period, the kill rate in % is determined. […]
Recorded metric: Kill in % after 6 days +AMS (%)
Reply with just the number (in %).

The reported Kill in % after 6 days +AMS of the compound "O=C1C=C(N(Cc2cnc(Br)c(F)c2)CC(F)F)CO1" was 10

Note to self: Kill in % after 6 days +AMS recorded for "O=C1C=C(N(Cc2cnc(Cl)c(F)c2)CC(F)F)CO1" was 20

# Kill in % after 6 days +AMS (compound: "O=C1C=C(N(Cc2cnc(Cl)c(F)c2)C2CC2)CO1" ) is 5

Documented Kill in % after 6 days +AMS of "O=C1C=C(N(CCF)Cc2ccc(Br)nc2)CO1" : 20

Form: compound = "O=C1C=C(N(Cc2ccc(F)nc2)CC(F)F)CO1" ; Kill in % after 6 days +AMS = 15

Note to self: Kill in % after 6 days +AMS recorded for "CN(Cc1ccc(Br)nc1)C1=CC(=O)OC1" was 70

Others:
The reported value for "O=C1C=C(N(Cc2ccc(Cl)nc2)C2CC2)CC1" in terms of Kill in % after 6 days +AMS is 0

Lab book: Kill in % after 6 days +AMS of "O=C1C=C(N(CCF)Cc2cnc(Cl)c(Cl)c2)CO1" noted as 5

----------
system: cotton aphid (Aphis gossypii); test: Aphis gossypii test (APHIGO spray treatment); format: in vivo; conditions: 20 ppm a.i. + rapeseed oil methyl ester 1000 ppm; cotton leaves sprayed; 6 days
Catalogue of compounds with associated Kill in % after 6 days +RME
// units = %; emit number, no label

The examples below pair each entry with its known result.
So the reported Kill in % after 6 days +RME for CCN(Cc1ccc(Cl)nc1)C1=CC(=O)OC1 [Compound I-30] , on cotton aphid (Aphis gossypii), turned out to be 100

I looked up O=C1C=C(NCc2ccc(Cl)nc2)CCC1 [Compound I-37] and its Kill in % after 6 days +RME for cotton aphid (Aphis gossypii) was 40

For the compound CN(Cc1ccc(Cl)nc1)C1=C(F)C(=O)OC1 [Compound I-28] , the measured Kill in % after 6 days +RME on cotton aphid (Aphis gossypii) was 95

# value of Kill in % after 6 days +RME, cotton aphid (Aphis gossypii), item C#CCN(Cc1ccc(Cl)nc1)C1=CC(=O)CCC1 [Compound I-36] = 45

Record C=CCN(Cc1ccc(Cl)nc1)C1=CC(=O)OC1 [Compound I-32] has cotton aphid (Aphis gossypii) Kill in % after 6 days +RME equal to 100

Now consider the entry below.
The observed Kill in % after 6 days +RME for O=C1C=C(N(Cc2ccc(C(F)(F)F)nc2)C2CC2)CO1 [Compound I-24] when tested with cotton aphid (Aphis gossypii) stands at 85

----------
system: cotton aphid (Aphis gossypii); assay: Aphis gossypii test (APHIGO spray treatment); format: in vivo; conditions: 0.8 ppm a.i. + AMS and RME 1000 ppm each; cotton leaves sprayed; 6 days
Threshold 20%. Kill in % after 6 days +AMS + RME below it: MET. Kill in % after 6 days +AMS + RME at it or above: NOT MET.

Q: is_below(Kill in % after 6 days +AMS + RME, 20%) for "O=C1C=C(N(Cc2ccc(Cl)nc2)C2CC2)CO1" ?
A: NOT MET

----------
Tested on: green peach aphid (Myzus persicae)
Experiment: Myzus persicae test (MYZUPE)
Type: in vivo
Conditions: 0.8 ppm a.i. + rapeseed oil methyl ester 1000 ppm; pepper plants sprayed; 6 days
Procedure: Myzus persicae Test (MYZUPE) Solvent: 7 parts by weight of dimethylformamide Emulsifier: 2 parts by weight of alkylaryl polyglycol ether To prepare an appropriate active ingredient formulation, 1 part by weight of active ingredient is mixed with the given amounts of solvent and emulsifier, and the concentrate is diluted with emulsifier-containing water to the desired concentration. […] After the desired time, the kill rate in % is determined. […]
Recorded metric: Kill in % after 6 days +RME (%)
Report the value in % with no unit label.

// returns Kill in % after 6 days +RME for "O=C1C=C(N(Cc2ccc(Br)nc2)CC(F)F)CO1" with green peach aphid (Myzus persicae); value = 98

Reading of Kill in % after 6 days +RME for "O=C1C=C(N(Cc2cnc(Br)c(F)c2)CC(F)F)CO1" with green peach aphid (Myzus persicae): 10

Observed Kill in % after 6 days +RME on green peach aphid (Myzus persicae), entry "O=C1C=C(N(Cc2ccc(Cl)nc2)C2CC2)CO1" , equals 100

Kill in % after 6 days +RME on green peach aphid (Myzus persicae) for "O=C1C=C(N(Cc2cnc(Cl)c(F)c2)C2CC2)CO1" is 35

Kill in % after 6 days +RME value, target or system green peach aphid (Myzus persicae), for "O=C1C=C(N(Cc2cnc(Cl)c(F)c2)CC(F)F)CO1" : 35

Kindly note: green peach aphid (Myzus persicae), "CN(Cc1cnc(Cl)c(F)c1)C1=CC(=O)OC1" , Kill in % after 6 days +RME value reported: 95

Continuing:
Item "O=C1C=C(N(Cc2ccc(Cl)nc2)CC(F)F)CO1" was tested on green peach aphid (Myzus persicae); the reported Kill in % after 6 days +RME is 80

Summary: "CON(Cc1ccc(Cl)nc1)C1=CC(=O)OC1" , green peach aphid (Myzus persicae), Kill in % after 6 days +RME = 30

green peach aphid (Myzus persicae) data for "CCN(Cc1ccc(Cl)nc1)C1=CC(=O)OC1" ; its Kill in % after 6 days +RME: 95

For "CN(Cc1ccc(Cl)nc1)C1=CC(=O)CC1" on green peach aphid (Myzus persicae), measured Kill in % after 6 days +RME was 98

Kill in % after 6 days +RME on green peach aphid (Myzus persicae) for "O=C1C=C(N(Cc2cnc(Br)c(F)c2)C2CC2)CO1" is 10

Result for "CN(Cc1ccc(C(F)(F)F)nc1)C1=CC(=O)OC1" , tested on green peach aphid (Myzus persicae), Kill in % after 6 days +RME: 75

Result for "CN(Cc1cnc(Br)c(F)c1)C1=CC(=O)OC1" , tested on green peach aphid (Myzus persicae), Kill in % after 6 days +RME: 99

Param item: "CN(Cc1ccc(Br)nc1)C1=CC(=O)OC1" ; param system: green peach aphid (Myzus persicae); output Kill in % after 6 days +RME: 100

Record "O=C1C=C(N(CCF)Cc2ccc(Br)nc2)CO1" / green peach aphid (Myzus persicae), Kill in % after 6 days +RME recorded as 25

Item "CN(Cc1cnc(Cl)c(Cl)c1)C1=CC(=O)OC1" ; assay system green peach aphid (Myzus persicae); Kill in % after 6 days +RME reported as 90

----------
test system: cotton aphid (Aphis gossypii); experiment: Aphis gossypii test (APHIGO spray treatment); type: in vivo; conditions: Aphis gossypii, 144 h; 20 ppm a.i. alone; cotton leaves sprayed; 6 days; read-out: Kill in % after 6 days a.i.
Recorded pest or weed control at 20 ppm values for a group of compounds are listed next.
Reply with just the number (in %).

For reference, reported pest or weed control at 20 ppm for "C#CCN(Cc1ccc(Cl)nc1)C1=CC(=O)CCC1" stands at 30

Input "O=C1C=C(N(Cc2ccc(C(F)(F)F)nc2)C2CC2)CO1" . Output pest or weed control at 20 ppm: 50

// field: pest or weed control at 20 ppm; key: "C=CCN(Cc1ccc(Cl)nc1)C1=CC(=O)OC1" ; value = 0

In plain terms, "CN(Cc1ccc(Cl)nc1)C1=C(F)C(=O)OC1" has a documented pest or weed control at 20 ppm of 55

Form field pest or weed control at 20 ppm, entry "O=C1C=C(NCc2ccc(Cl)nc2)CCC1" : 55

So for "CCN(Cc1ccc(Cl)nc1)C1=CC(=O)OC1" , the logged pest or weed control at 20 ppm turned out to be 80

----------
system: cotton aphid (Aphis gossypii); assay: Aphis gossypii test (APHIGO spray treatment); assay type: in vivo; conditions: 0.8 ppm a.i. + AMS and RME 1000 ppm each; cotton leaves sprayed; 6 days
Kill in % after 6 days +AMS + RME reference
Kindly provide the numeric value in % only, without the unit symbol.

// recorded Kill in % after 6 days +AMS + RME for O=C1C=C(N(Cc2cnc(Cl)c(F)c2)CC(F)F)CO1 [Compound I-17] : 40

Note to self: Kill in % after 6 days +AMS + RME recorded for O=C1C=C(N(CCF)Cc2cnc(Cl)c(Cl)c2)CO1 [Compound I-14] was 70

Sure, the documented Kill in % after 6 days +AMS + RME for O=C1C=C(N(Cc2ccc(F)nc2)C2CC2)CO1 [Compound I-22] is 45

For the next question, use this compound.
Value of Kill in % after 6 days +AMS + RME reported for the compound O=C1C=C(N(Cc2ccc(Br)nc2)CC(F)F)CO1 [Compound I-2] is 15
